Recorded values, source PubChem BioAssay (NCATS).

System: TAB113
Assay: qHTS profiling for inhibitors of Plasmodium falciparum proliferation (AID 504749); further: nearly all actives have a fitted effect of over 60% in size
Settings: P. falciparum in erythrocytes, SYBR Green DNA, 72 h; series mostly up to 28.7 µM
Procedure: NIH National Institute of Allergy and Infectious Diseases [NIAID] NIH Chemical Genomics Center [NCGC] […] Because mature erythrocytes lack DNA, only Plasmodium-derived DNA is detected. NCGC Assay Protocol Summary: The SYBR Green viability assay was adapted from a method described previously (Plouffe et al., 2008). […] The following morning, fluorescence intensity at 485(14) nm excitation and 535(25) nm emission wavelengths was measured on an EnVision (Perkin Elmer) plate reader. […]
Inconclusive results are not listed. Calls of active or inactive are those of the source. The call rests on the fitted dose curve; in most records, active means well fitted inhibition curve with a large enough effect; inconclusive means small, poorly fitted or top-dose-only effect; inactive means flat fitted curve, though single readings scatter.
Outcome codes: 1 (active), -1 (inactive)

>  <compound>
CCN(CC)Cc1cc(Nc2ccnc3cc(Cl)ccc23)ccc1O

>  <assay.system>
TAB113

>  <category>
1

$$$$
>  <compound>
Cc1c(C)c2c(c(C)c1O)CC[C@@](C)(CCC[C@H](C)CCC[C@H](C)CCCC(C)C)O2

>  <assay.system>
TAB113

>  <category>
-1

$$$$
>  <compound>
COC(F)(F)C(Cl)Cl

>  <assay.system>
TAB113

>  <category>
-1

$$$$
>  <compound>
CC(Cc1ccc(O)c(O)c1)C(C)Cc1ccc(O)c(O)c1 (stereo not drawn)

>  <assay.system>
TAB113

>  <category>
-1

$$$$
>  <compound>
Nc1ncnc2c1ncn2[C@@H]1O[C@H](COP(=O)(O)OP(=O)(O)OP(=O)(O)O)[C@@H](O)[C@H]1O

>  <assay.system>
TAB113

>  <category>
-1

$$$$
>  <compound>
O=C(COc1ccc(Cl)cc1)OCCNC12CC3CC(CC(C3)C1)C2

>  <assay.system>
TAB113

>  <category>
-1

$$$$
>  <compound>
Cc1ccccc1OCC(O)CNCCOc1ccc(C(N)=O)cc1 (stereo not drawn)

>  <assay.system>
TAB113

>  <category>
-1

$$$$
>  <compound>
CCCCCCCCCCCCCC[n+]1ccc(C)cc1

>  <assay.system>
TAB113

>  <category>
1

$$$$
>  <compound>
CCOC(=O)C1=CC2(CC)CCCN3CCc4c(n1c1ccccc41)C32 (stereo not drawn)

>  <assay.system>
TAB113

>  <category>
1

$$$$
>  <compound>
CC(C)=O

>  <assay.system>
TAB113

>  <category>
-1

$$$$
>  <compound>
CCCCCCCCCCCC[n+]1ccc2ccccc2c1

>  <assay.system>
TAB113

>  <category>
1

$$$$
>  <compound>
Cc1ccccc1

>  <assay.system>
TAB113

>  <category>
-1

$$$$
>  <compound>
Nc1c(N=Nc2ccc(-c3ccc(N=Nc4cc(S(=O)(=O)O)c5ccccc5c4N)cc3)cc2)cc(S(=O)(=O)O)c2ccccc12

>  <assay.system>
TAB113

>  <category>
-1

$$$$
>  <compound>
CC(NNC(=O)c1ccccc1)c1ccccc1 (stereo not drawn)

>  <assay.system>
TAB113

>  <category>
-1

$$$$
>  <compound>
NC(=O)c1ncn(C2OC(CO)C(O)C2O)n1 (stereo not drawn)

>  <assay.system>
TAB113

>  <category>
-1

$$$$
>  <compound>
Cc1cn([C@H]2C[C@H](O)[C@@H](CO)O2)c(=O)[nH]c1=O

>  <assay.system>
TAB113

>  <category>
-1

$$$$
>  <compound>
CC1=C(/C=C/C(C)=C/C=C/C(C)=C/C=C/C=C(C)/C=C/C=C(C)/C=C/C2=C(C)CCCC2(C)C)C(C)(C)CCC1

>  <assay.system>
TAB113

>  <category>
-1

$$$$
>  <compound>
CCCC(=O)Nc1ncnc2c1ncn2C1OC2COP(=O)(O)OC2C1OC(=O)CCC (stereo not drawn)

>  <assay.system>
TAB113

>  <category>
-1

$$$$
>  <compound>
O=C(O)CCC(=O)C(=O)O

>  <assay.system>
TAB113

>  <category>
-1

$$$$
>  <compound>
CCC(=O)NCCC1CCc2ccc3c(c21)CCO3 (stereo not drawn)

>  <assay.system>
TAB113

>  <category>
-1

$$$$
>  <compound>
Cc1c(C)c2c(c(C)c1O)CC[C@@](C)(CCC[C@@H](C)CCC[C@@H](C)CCCC(C)C)O2

>  <assay.system>
TAB113

>  <category>
-1

$$$$
>  <compound>
CCCCC/C=C\C/C=C\CCCCCCCC(=O)O

>  <assay.system>
TAB113

>  <category>
-1

$$$$
>  <compound>
C[C@]12O[C@H](C[C@]1(O)CO)n1c3ccccc3c3c4c(c5c6ccccc6n2c5c31)CNC4=O

>  <assay.system>
TAB113

>  <category>
1

$$$$
